# testTarget: Beta-2 adrenergic receptor (Homo sapiens, UniProt P07550)
# Sequence (P07550 whole entry): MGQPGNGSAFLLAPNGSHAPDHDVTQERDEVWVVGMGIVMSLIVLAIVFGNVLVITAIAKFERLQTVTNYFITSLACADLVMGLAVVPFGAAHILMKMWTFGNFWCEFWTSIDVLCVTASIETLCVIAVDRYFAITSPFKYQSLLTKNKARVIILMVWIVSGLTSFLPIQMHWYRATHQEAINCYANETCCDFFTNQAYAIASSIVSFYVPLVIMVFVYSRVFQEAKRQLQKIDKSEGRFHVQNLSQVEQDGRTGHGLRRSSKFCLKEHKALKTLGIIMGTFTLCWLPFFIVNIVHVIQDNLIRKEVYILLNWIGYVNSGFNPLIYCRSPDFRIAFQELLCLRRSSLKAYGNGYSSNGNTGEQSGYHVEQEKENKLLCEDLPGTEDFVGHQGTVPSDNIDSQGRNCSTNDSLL
Each entry belongs to exactly one class, chosen by where its IC50 falls: bottom range: < 200 nM; center range: ≥ 200 nM and < 900 nM; top range: ≥ 900 nM

{"columns": ["smilesEntry", "testTarget", "cat"],
 "data": [
  ["CCCCCCc1nc(N2CCc3cc(S(=O)(=O)Nc4ccccc4)ccc32)no1", "Beta-2 adrenergic receptor (Homo sapiens, UniProt P07550)", "bottom range"],
  ["CCCCCCCCc1csc(N(C)c2ccc(S(=O)(=O)Nc3ccccc3)cc2)n1", "Beta-2 adrenergic receptor (Homo sapiens, UniProt P07550)", "center range"],
  ["CCCCCCCCc1csc(N2CCc3cc(S(=O)(=O)Nc4ccccc4)ccc32)n1", "Beta-2 adrenergic receptor (Homo sapiens, UniProt P07550)", "top range"]
]}

Prompt: Categorize the following entry: O=S(=O)(Nc1ccccc1)c1ccc2c(c1)CCN2c1cccc(CCCC2CCCC2)n1
Completion: center range

Prompt: Categorize the following entry: CCCCCCCCc1cnc(N2CCc3cc(S(=O)(=O)Nc4ccccc4)ccc32)o1
Completion: bottom range

Prompt: Categorize the following entry: CCCCCCCCN(C)C(=O)N1CCc2cc(S(=O)(=O)Nc3ccccc3)ccc21
Completion: top range

Prompt: Categorize the following entry: CCCCCCNC(=O)N1CCc2cc(S(=O)(=O)Nc3ccccc3)ccc21
Completion: top range

Prompt: Categorize the following entry: O=S(=O)(Nc1ccccc1)c1ccc2c(c1)CCN2c1noc(CCCC2CCCC2)n1
Completion: bottom range

Prompt: Categorize the following entry: CCCCCCCCc1cccc(N2CCc3cc(S(=O)(=O)Nc4ccccc4)ccc32)n1
Completion: bottom range

Prompt: Categorize the following entry: CCCCCCCCc1csc(Nc2ccc(S(=O)(=O)Nc3ccccc3)cc2)n1
Completion: center range

---

# testTarget: Beta-3 adrenergic receptor (Homo sapiens, UniProt P13945)
# Sequence (P13945 whole entry, looked up): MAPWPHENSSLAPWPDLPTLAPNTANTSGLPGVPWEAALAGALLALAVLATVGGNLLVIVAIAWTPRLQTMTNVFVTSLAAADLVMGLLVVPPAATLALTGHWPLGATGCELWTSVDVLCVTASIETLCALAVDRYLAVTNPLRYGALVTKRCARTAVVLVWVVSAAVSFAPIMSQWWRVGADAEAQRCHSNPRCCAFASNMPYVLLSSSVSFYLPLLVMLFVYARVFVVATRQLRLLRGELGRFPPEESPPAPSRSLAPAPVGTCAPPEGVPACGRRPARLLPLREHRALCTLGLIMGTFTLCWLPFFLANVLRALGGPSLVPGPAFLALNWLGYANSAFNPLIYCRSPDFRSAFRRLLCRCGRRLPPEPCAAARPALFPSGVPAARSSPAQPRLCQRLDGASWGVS
# test: Adenylyl cyclase activation as percent maximal stimulation with isoproterenol at 100 nM
# Format: functional
assayReadout: Activation (%)
Respond with the bare value in %.

Reference set, count: 3
{"columns": ["smilesEntry", "reportedValue"],
 "data": [
  ["O=S(=O)(Nc1ccccc1)c1ccc2c(c1)CCN2c1noc(CCCC2CCCC2)n1", 20],
  ["CCCCCCNC(=O)N(C)c1ccc(S(=O)(=O)Nc2ccc(CCNC[C@H](O)c3cccnc3)cc2)cc1", 20],
  ["CN(C)C(=O)N1CCc2cc(S(=O)(=O)Nc3ccccc3)ccc21", 8]
]}

Prompt: Given the compound CN(C(=O)N1CCc2cc(S(=O)(=O)Nc3ccccc3)ccc21)C(C)(C)Cc1ccccc1 , what is its reported Activation?
Completion: 17

---

# testTarget: Beta-2 adrenergic receptor (Homo sapiens)
Each entry belongs to exactly one class, chosen by where its IC50 falls: low value (below 600 nM), medium value (600 nM to below 2000 nM), high value (2000 nM or more)

{"columns": ["smilesEntry", "cat"],
 "data": [
  ["CCCCCCc1ccc(N2CCc3cc(S(=O)(=O)Nc4ccccc4)ccc32)nc1", "low value"]
]}

Prompt: Categorize the following entry: CN(C(=O)N1CCc2cc(S(=O)(=O)Nc3ccccc3)ccc21)C(C)(C)Cc1ccccc1
Completion: high value

Prompt: Categorize the following entry: CCCCCCCCNC(=O)N1CCc2cc(S(=O)(=O)Nc3ccccc3)ccc21
Completion: medium value

Prompt: Categorize the following entry: CCCCCCCCc1ccnc(N2CCc3cc(S(=O)(=O)Nc4ccccc4)ccc32)n1
Completion: low value

Prompt: Categorize the following entry: Cc1csc(N2CCc3cc(S(=O)(=O)Nc4ccccc4)ccc32)n1
Completion: medium value

Prompt: Categorize the following entry: CN(C)C(=O)N1CCc2cc(S(=O)(=O)Nc3ccccc3)ccc21
Completion: high value

Prompt: Categorize the following entry: CCCCCCc1csc(N2CCc3cc(S(=O)(=O)Nc4ccccc4)ccc32)n1
Completion: low value

Prompt: Categorize the following entry: CN(CCc1ccccc1)C(=O)N1CCc2cc(S(=O)(=O)Nc3ccccc3)ccc21
Completion: high value

Prompt: Categorize the following entry: CCCCCCCCC(=O)N1CCc2cc(S(=O)(=O)Nc3ccccc3)ccc21
Completion: medium value
